Values compiled from PubChem BioAssay AID1963828.

System: 991263-137-R1-J2-PDC complex spheroid viability
assayRemarks: Anticancer human tumor 991263-137-R1-J2-PDC patient-derived colon adenocarcinoma cell line growth inhibition [POLQ]
cond: second compound 0.1 µM; first compound 10 µM; stronger effect = lower value
readoutKind: viability, T/C (%)
Provide only the numeric value, understood in %.

# compound, targetSystem, unitOfMeasure, viability, T/C
measured = [
    ("CC1COCCN1c1cc(C2(S(C)(=N)=O)CC2)nc(-c2ccnc3[nH]ccc23)n1 (stereo not given) + Nc1ccc(C#CCN(C(=O)Cc2ncc(C(F)(F)F)cc2C(F)(F)F)c2ccc(F)cc2)nn1", "991263-137-R1-J2-PDC complex spheroid viability", "%", 97.2),
]

stdin: State its viability, T/C for this compound: COc1cccc2c1C(=O)c1c(O)c3c(c(O)c1C2=O)CC(O)(C(=O)CO)CC3OC1CC(N)C(O)C(C)O1 (stereo not given) + Nc1ccc(C#CCN(C(=O)Cc2ncc(C(F)(F)F)cc2C(F)(F)F)c2ccc(F)cc2)nn1
stdout: 40.2

stdin: Output measured viability, T/C for this item: COc1cc2cc(C(=O)CCC(=O)O)sc2cc1OC + Cc1cccc(N(C)C(=O)C2C(O)CCN2c2nc(C)cc(C(F)(F)F)c2C#N)c1
stdout: 77

stdin: Quick one: give measured viability, T/C for CCc1cc2c(N3CCc4c(cc(Cn5ccnc5)cc4-c4cn(C)nc4C(F)(F)F)C3=O)ccnc2c(OC)n1 + COC1C(OC(N)=O)C(O)C(Oc2ccc3c(O)c(NC(=O)c4ccc(O)c(CC=C(C)C)c4)c(=O)oc3c2C)OC1(C)C
stdout: 81

stdin: Answer with the recorded viability, T/C of COc1cccc2c1C(=O)c1c(O)c3c(c(O)c1C2=O)CC(O)(C(=O)CO)CC3OC1CC(N)C(O)C(C)O1 (stereo not given) + Cc1cccc(N(C)C(=O)C2C(O)CCN2c2nc(C)cc(C(F)(F)F)c2C#N)c1 only.
stdout: 33.8

====

Test system: 991263-137-R1-J2-PDC complex spheroid viability
assayRemarks: Anticancer human tumor 991263-137-R1-J2-PDC cell line growth inhibition [POLQ];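 note: spheroids exposed to compounds for 7 days before readout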;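 for viability, T/C: 100% = DMSO vehicle control viability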
cond: second compound 0.0316 µM; first compound 10 µM; stronger effect = lower value
readoutKind: viability, T/C (%)
Report the value in % with no unit label.

stdin: For the compound COc1cc(C2c3cc4c(cc3C(OC3OC5COC(C)OC5C(O)C3O)C3COC(=O)C23)OCO4)cc(OC)c1O (stereo not given) + Nc1ccc(C#CCN(C(=O)Cc2ncc(C(F)(F)F)cc2C(F)(F)F)c2ccc(F)cc2)nn1 , give its measured viability, T/C value.
stdout: 74.4

stdin: Give me measured viability, T/C, please, for this compound: COc1cc2cc(C(=O)CCC(=O)O)sc2cc1OC + Nc1ccc(C#CCN(C(=O)Cc2ncc(C(F)(F)F)cc2C(F)(F)F)c2ccc(F)cc2)nn1
stdout: 84.8

====

Tested on: 991263-137-R1-J2-PDC complex spheroid viability
assayRemarks: Anticancer human tumor 991263-137-R1-J2-PDC cell line growth inhibition [POLQ];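 note: spheroids exposed to compounds for 7 days before readout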
cond: curve of first compound; second compound 10 µM
readoutKind: IC50

# compound, IC50
data = [
    ("CC(=O)O[C@H]1C(=O)[C@@]2(C)[C@H]([C@H](OC(=O)c3ccccc3)[C@]3(O)C[C@H](OC(=O)[C@H](O)[C@@H](NC(=O)c4ccccc4)c4ccccc4)C(C)=C1C3(C)C)[C@]1(OC(C)=O)CO[C@@H]1C[C@@H]2O + Nc1ccc(C#CCN(C(=O)Cc2ncc(C(F)(F)F)cc2C(F)(F)F)c2ccc(F)cc2)nn1", "> 3 µM"),
]

Please find the next compound below.
stdin: Tell me measured IC50 for COc1cc(C2c3cc4c(cc3C(OC3OC5COC(C)OC5C(O)C3O)C3COC(=O)C23)OCO4)cc(OC)c1O (configuration not stated) + Nc1ccc(C#CCN(C(=O)Cc2ncc(C(F)(F)F)cc2C(F)(F)F)c2ccc(F)cc2)nn1 please.
stdout: > 10 µM

====

Test system: 991263-137-R1-J2-PDC complex spheroid viability
assayRemarks: Anticancer human tumor 991263-137-R1-J2-PDC cell line growth inhibition [POLQ];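 note: spheroids exposed to compounds for 7 days before readout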;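 for viability, T/C: 100% = DMSO vehicle control viability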
cond: second compound 1 µM; first compound 0.0316 µM; stronger effect = lower value
Method: Multicellular complex tumor spheroid response to Polymerase (POL) inhibitors (novobiocin, ART-558, RP6685) in combination with a variety of drugs and investigational agents in selected tumor cell lines The POL inhibitors (novobiocin, ART-558, and RP6685) were evaluated both individually and in combination with standard of care and investigational anticancer small molecules within a complex spheroid model of solid tumors. . […]
# key: entry, value: viability, T/C
Give your result in % as a bare value.

Sample records with viability, T/C:
# compound, unitOfMeasure, viability, T/C
rows = [
    ("CC1COCCN1c1cc(C2(S(C)(=N)=O)CC2)nc(-c2ccnc3[nH]ccc23)n1 (stereo not given) + COC1C(OC(N)=O)C(O)C(Oc2ccc3c(O)c(NC(=O)c4ccc(O)c(CC=C(C)C)c4)c(=O)oc3c2C)OC1(C)C", "%", 106),
    ("CC1COCCN1c1cc(C2(O)CC3CCC(C2)O3)c2cnn(-c3ccn[nH]3)c2n1 (stereo not given) + COC1C(OC(N)=O)C(O)C(Oc2ccc3c(O)c(NC(=O)c4ccc(O)c(CC=C(C)C)c4)c(=O)oc3c2C)OC1(C)C", "%", 104),
    ("COc1cc(C2c3cc4c(cc3C(OC3OC5COC(C)OC5C(O)C3O)C3COC(=O)C23)OCO4)cc(OC)c1O (stereo not given) + Nc1ccc(C#CCN(C(=O)Cc2ncc(C(F)(F)F)cc2C(F)(F)F)c2ccc(F)cc2)nn1", "%", 100),
    ("C=CCn1c(=O)c2cnc(Nc3ccc(N4CCN(C)CC4)cc3)nc2n1-c1cccc(C(C)(C)O)n1 + COC1C(OC(N)=O)C(O)C(Oc2ccc3c(O)c(NC(=O)c4ccc(O)c(CC=C(C)C)c4)c(=O)oc3c2C)OC1(C)C", "%", 96.8),
]

Okay, now this compound:
stdin: Answer with the recorded viability, T/C of O=C(Nc1ccc(O)c(NS(=O)(=O)c2ccc(F)cc2)c1)c1ccc(-c2ccccc2)cc1 + Cc1cccc(N(C)C(=O)C2C(O)CCN2c2nc(C)cc(C(F)(F)F)c2C#N)c1 only.
stdout: 99.2

====

Tested on: 991263-137-R1-J2-PDC complex spheroid viability
assayRemarks: Anticancer human tumor 991263-137-R1-J2-PDC cell line growth inhibition [POLQ];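 note: spheroids exposed to compounds for 7 days before readout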
cond: curve of first compound; second compound 1 µM
pIC50: −log10 of the molar value.
Consider the following molecules and their measured pIC50 readings.

Please review the entries below; each comes with its answer.
# molecule, targetSystem, pIC50
data = [
    ("C=CC(=O)N1CCN(c2nc(=O)n(-c3c(C)ccnc3C(C)C)c3nc(-c4c(O)cccc4F)c(F)cc23)C(C)C1 (stereo not given) + Nc1ccc(C#CCN(C(=O)Cc2ncc(C(F)(F)F)cc2C(F)(F)F)c2ccc(F)cc2)nn1", "991263-137-R1-J2-PDC complex spheroid viability", "< 5.00"),
    ("O=C(Nc1ccc(O)c(NS(=O)(=O)c2ccc(F)cc2)c1)c1ccc(-c2ccccc2)cc1 + COC1C(OC(N)=O)C(O)C(Oc2ccc3c(O)c(NC(=O)c4ccc(O)c(CC=C(C)C)c4)c(=O)oc3c2C)OC1(C)C", "991263-137-R1-J2-PDC complex spheroid viability", "< 5.00"),
    ("CCc1c2c(nc3ccc(O)cc13)-c1cc3c(c(=O)n1C2)COC(=O)[C@]3(O)CC + COC1C(OC(N)=O)C(O)C(Oc2ccc3c(O)c(NC(=O)c4ccc(O)c(CC=C(C)C)c4)c(=O)oc3c2C)OC1(C)C", "991263-137-R1-J2-PDC complex spheroid viability", 7.17),
    ("CC[C@@]1(O)C(=O)OCc2c1cc1n(c2=O)Cc2cc3c(CN(C)C)c(O)ccc3nc2-1 + Cc1cccc(N(C)C(=O)C2C(O)CCN2c2nc(C)cc(C(F)(F)F)c2C#N)c1", "991263-137-R1-J2-PDC complex spheroid viability", "< 7.00"),
]

Okay, next one:
stdin: Please look at this molecule and report its pIC50: O=C(Nc1ccc(O)c(NS(=O)(=O)c2ccc(F)cc2)c1)c1ccc(-c2ccccc2)cc1 + Cc1cccc(N(C)C(=O)C2C(O)CCN2c2nc(C)cc(C(F)(F)F)c2C#N)c1
stdout: < 5.00

====

Reported IC50 is given for each of the following compounds.
Test system: 991263-137-R1-J2-PDC complex spheroid viability
assayRemarks: Anticancer human tumor 991263-137-R1-J2-PDC cell line growth inhibition [POLQ];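 note: spheroids exposed to compounds for 7 days before readout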
cond: curve of first compound; second compound 1 µM
Reply with just the number (in nM).

Worked examples follow.
# compound, unitOfMeasure, reportedMeasurement
rows = [
    ("CCc1c2c(nc3ccc(O)cc13)-c1cc3c(c(=O)n1C2)COC(=O)[C@]3(O)CC + Nc1ccc(C#CCN(C(=O)Cc2ncc(C(F)(F)F)cc2C(F)(F)F)c2ccc(F)cc2)nn1", "nM", 110),
    ("COc1cccc2c1C(=O)c1c(O)c3c(c(O)c1C2=O)CC(O)(C(=O)CO)CC3OC1CC(N)C(O)C(C)O1 (centres undefined) + COC1C(OC(N)=O)C(O)C(Oc2ccc3c(O)c(NC(=O)c4ccc(O)c(CC=C(C)C)c4)c(=O)oc3c2C)OC1(C)C", "nM", 1130),
    ("CCc1c2c(nc3ccc(O)cc13)-c1cc3c(c(=O)n1C2)COC(=O)[C@]3(O)CC + Cc1cccc(N(C)C(=O)C2C(O)CCN2c2nc(C)cc(C(F)(F)F)c2C#N)c1", "nM", 72.3),
]

Kindly review the next compound as well.
stdin: Return reported IC50 for target or system 991263-137-R1-J2-PDC complex spheroid viability, item CC(=O)O[C@H]1C(=O)[C@@]2(C)[C@H]([C@H](OC(=O)c3ccccc3)[C@]3(O)C[C@H](OC(=O)[C@H](O)[C@@H](NC(=O)c4ccccc4)c4ccccc4)C(C)=C1C3(C)C)[C@]1(OC(C)=O)CO[C@@H]1C[C@@H]2O + Cc1cccc(N(C)C(=O)C2C(O)CCN2c2nc(C)cc(C(F)(F)F)c2C#N)c1 .
stdout: 825
